Test system: noradrenaline (NA) reuptake in synaptosomes
Test: Inhibition of NA reuptake in synaptosomes
Assay type: biochemical
Details: 3H-NA, read-out: NA-uptake IC50
Procedure: Compounds were tested for their ability to inhibit the reuptake of the monoamine neurotransmitters dopamine (DA) noradrenaline (NA) and serotonine (5-HT) in synaptosomes as described in WO 97/16451 (NeuroSearch A/S). The test values are given as IC50 (the concentration (μM) of the test substance which inhibits the specific binding of ^3H-DA, ^3H-NA, or ^3H-5-HT by 50%).
Counter-ions that a name gives are not always drawn.
recordedMetric: IC50 (nM)
Numeric only. Scale: nM

GET /value?item= COc1cc2ccc(O[C@@H]3C[C@H]4CC[C@@H](C3)N4)cc2oc1=O [Compound 1.1, hydrochloride] &field=IC50 returns 3.8
